- Test system: Vero E6
- experiment_notes: cell viability relative to DMSO; higher = less toxic
- settings: 72 h; 1000 nM
Listed here: items and their measured cell viability.

compound | system | cell viability / %
Nc1ncnc2c1c(-c1ccc(Oc3ccccc3)cc1)nn2C1CCCC1 | Vero E6 | 90.8
NC(=O)c1ncn([C@@H]2O[C@H](CO)[C@@H](O)[C@H]2O)c1O [mizoribine] | Vero E6 | 97.8
CN(C)CCOC1=Cc2ccccc2Sc2ccc(Cl)cc21 [zotepine] | Vero E6 | 94.1
O=C(O)CNC(=O)C(CS)Cc1ccccc1 (stereo not drawn) [thiorphan] | Vero E6 | 101
CO[C@H]1/C=C/O[C@@]2(C)Oc3c(C)c(O)c4c(O)c(c(/C=N/N5CCN(C)CC5)c(O)c4c3C2=O)NC(=O)/C(C)=C\C=C\[C@H](C)[C@H](O)[C@@H](C)[C@@H](O)[C@@H](C)[C@H](OC(C)=O)[C@@H]1C [rifampin] | Vero E6 | 103
c1ccc(C2CN3CCSC3=N2)cc1 (stereo not drawn) [tetramisole] | Vero E6 | 96.8
O=C(O)c1nc(=O)[nH]c(=O)[nH]1 [oxonic-acid] | Vero E6 | 79.8
COc1ccc(-c2nc3cc(C4=NNC(=O)CC4C)ccc3[nH]2)cc1 (stereo not drawn) [pimobendan] | Vero E6 | 101

---

Reported drug sensitivity score by item:
- System: Caco-2
- experiment_notes: drug sensitivity score (DSS) for viability; higher = more toxic; extreme values may be limits of the assay
- settings: 72 h
value_kind: drug sensitivity score

molecule | result
Nc1c(Br)cc(Br)cc1CN[C@H]1CC[C@H](O)CC1 [ambroxol] | 0
CC(=O)c1cnc2ccc(-c3cc(Cl)c(O)c(Cl)c3)nc2c1N[C@H]1CC[C@H](CN(C)C)CC1 [OTS167] | 21.5
CNC[C@H](O)c1ccc(O)c(O)c1 [epinephrine] | 0

---

- Tested on: U2OS
- experiment_notes: cell viability relative to DMSO; higher = less toxic
- settings: 72 h; 10 nM
Quick reference for cell viability among some compounds

smiles_repr | cell viability
CCCCCOc1ccc(-c2cc(-c3ccc(C(=O)N[C@H]4C[C@@H](O)[C@@H](O)NC(=O)[C@@H]5[C@@H](O)[C@@H](C)CN5C(=O)[C@H]([C@H](O)CC(N)=O)NC(=O)[C@H]([C@H](O)[C@@H](O)c5ccc(O)c(OS(=O)(=O)O)c5)NC(=O)[C@@H]5C[C@@H](O)CN5C(=O)[C@H]([C@@H](C)O)NC4=O)cc3)no2)cc1 | 102%
C[C@H]1C[C@@H]2[C@H]([C@@H](O)C[C@@]3(C)[C@H]2CC[C@]3(O)C(=O)CO)[C@@]2(C)C=CC(=O)C=C12 | 97.9%

---

- System: U2OS
- experiment_notes: cell viability relative to DMSO; higher = less toxic
- settings: 72 h; 100 nM
Below, each entry is listed alongside its reported cell viability.

compound | cell viability / %
NC1=NC(=O)N([C@H]2C[C@H](O)[C@@H](CO)O2)CN1 | 95.5
CCCC(=O)C1CCN(c2ncnc3c2CN(C(=O)c2ccc(-c4ccccc4)cc2)CC3)CC1 | 103
CCOC(=O)[C@]12CC1/C(=N\O)c1ccccc1O2 (some centres undefined) | 96.4
O=C(O)CCc1c(C(=O)O)[nH]c2cc(Cl)cc(Cl)c12 | 95.9
C#CCN1C(C)=C(C(=O)OC)C(c2cccc([N+](=O)[O-])c2)C(C(=O)OCC)=C1C (centres undefined) | 105
CC(C)(O)CC(=O)O [beta-hydroxy-beta-methylbutyrate] | 98.1
C[C@H](N)Cc1cccc(O)c1 | 90.3
O.O=[Si]=O.O=[Si]=O.O=[Si]=O.O=[Si]=O.[O]=[Mg].[O]=[Mg].[O]=[Mg] | 95.9
N#C/C(=C1/SCC(c2ccccc2Cl)S1)n1ccnc1 (centres undefined) | 97.4
